Assay: Pharmacokinetic evaluation in mice
Assay type: in vivo, C57BL/6J mice
Conditions: male, C57BL/6J, mouse, plasma, 2 mg/kg, intravenous injection, 2 mpk, read-out: Area under the curve AUC(0-∞)
From the text: Animals: 6 male C57BL/6J mice, SPF grade, sourced from the animal repository of Shanghai Medicilon research institution. Grouping: Mice were divided into 2 groups of 3 mice each, one group was an oral administration group and the other group was an intravenous injection administration group. The dose in the oral administration group was 10 mpk, and the dose in the intravenous injection group was 2 mpk. […]
ATTRIBUTE_MEASURED: AUC(0-inf)
Answer as a quantity: numeral, then unit.

Ask: # input molecule: "Cc1cc(Cn2ncn(-c3ccc(C(F)(F)F)cc3)c2=O)cc(C)c1OC(C)(C)C(=O)O" ; wanted: its AUC(0-inf)
Result: 4360 ng·h/mL

Values compiled from patent US20250188044A1.
